Sourced from BindingDB's records for doi:10.1016/j.bmc.2018.08.021

- measurementNotes: Inhibition of ABCB1 (unknown origin) expressed in HEK293T cells assessed as potentiation of paclitaxel-induced cytotoxicity by measuring paclitaxel IC50 at 10 uM after 72 hrs by MTT assay (Rvb = 0.09 +/- 0.02 microM)
outcomeMeasure: IC50 (µM)
Value expressed in µM; do not type the unit.

Challenge: What value of measured IC50 is listed for O=c1cc(-c2ccccc2)[nH]c2nc(SCc3nc4ccccc4[nH]3)nn12 ?
Response given: 0.05

###

- measurementNotes: Inhibition of ABCB1 (unknown origin) expressed in HEK293T cells assessed as potentiation of doxorubicin-induced cytotoxicity by measuring doxorubicin IC50 at 20 uM after 72 hrs by MTT assay (Rvb = 1.17 +/- 0.09 microM)
outcomeMeasure: IC50 (nM)
Value expressed in nM; do not type the unit.

Challenge: What value of measured IC50 is listed for O=c1cc(-c2ccccc2)[nH]c2nc(SCc3nc4ccccc4[nH]3)nn12 ?
Response given: 290

###

- measurementNotes: Inhibition of ABCB1 in human SW620/Ad300 cells assessed as potentiation of paclitaxel-induced cytotoxicity by measuring paclitaxel IC50 at 10 uM after 72 hrs by MTT assay (Rvb = 3.39 +/- 0.84 microM)
outcomeMeasure: pIC50
Scale: pIC50 equals -log10([C]), with [C] in mol/L.

Challenge: What value of measured pIC50 is listed for O=c1cc(-c2ccccc2)[nH]c2nc(SCc3nc4ccccc4[nH]3)nn12 ?
Response given: 5.83

###

- measurementNotes: Inhibition of ABCB1 in human SW620/Ad300 cells assessed as potentiation of paclitaxel-induced cytotoxicity by measuring paclitaxel IC50 at 20 uM after 72 hrs by MTT assay (Rvb = 3.39 +/- 0.84 microM)
outcomeMeasure: pIC50
Scale: pIC50 equals -log10([C]), with [C] in mol/L.

Challenge: What value of measured pIC50 is listed for O=c1cc(-c2ccccc2)[nH]c2nc(SCc3nc4ccccc4[nH]3)nn12 ?
Response given: 6.18
